Test system: human Huh-7 HCC cells
assay.method.text: Growth inhibition, crystal violet staining, Huh-7
Assay type: cell-based
run.parameters: 48 h incubation, mean ± SD, read-out: Anti-proliferative activity IC50, Huh-7
measured.quantity: IC50

| compound | readout.value |
| --- | --- |
| CN1CCN(c2ccc(/C=C(\C#N)c3cccs3)cc2)CC1 [Compound 1i] | 11.8 µM |
| COc1ccc(/C=C(\C#N)c2cccs2)cc1F [Compound 1j] | 5.7 µM |
| COc1ccc(C=C(C#N)c2cccs2)cc1 [Compound 1a] | 1.2 µM |
| Cn1ccc2cc(/C=C(\C#N)c3cccs3)ccc21 [Compound 1o] | > 20 µM |
| COCCOc1cc(/C=C(\C#N)c2cccs2)ccc1OC [Compound 1g] | > 20 µM |
| COCCOc1ccc(/C=C(\C#N)c2cccs2)cc1F [Compound 1k] | > 20 µM |
| COc1cc(/C=C(\C#N)c2cccs2)ccc1O [Compound 1d] | > 20 µM |
| COCCOc1ccc(/C=C(\C#N)c2cccs2)cc1OCCOC [Compound 1h] | > 20 µM |
| CN(C)c1ccc(C=C(C#N)c2cccs2)cc1 [Compound 1b] | 0.67 µM |
| N#C/C(=C\c1cccc(O)c1)c1cccs1 [Compound 1m] | > 20 µM |

* * *

Test system: non-malignant murine AML-12 hepatocytes
assay.method.text: Growth inhibition, crystal violet staining, AML-12
Type: cell-based
run.parameters: Mus musculus, AML12; 48 h incubation, mean ± SD; read-out: Anti-proliferative activity IC50, AML-12
pIC50: −log10 of the molar value.

| chemical.smiles | pIC50 |
| --- | --- |
| COc1ccc(C=C(C#N)c2cccs2)cc1O | 5.74 |
| COc1ccc(C=C(C#N)c2cccs2)cc1 | 5.17 |
| COc1ccc(/C=C(\C#N)c2cccs2)cc1F | 5.03 |
| COc1ccc(C=C(C#N)c2cccs2)cc1C | 4.83 |
| CN1CCN(c2ccc(/C=C(\C#N)c3cccs3)cc2)CC1 | 4.69 |
| CN(C)c1ccc(C=C(C#N)c2cccs2)cc1 | 5.57 |

* * *

Parameter IC50: see the listing below.
Test system: human HepG2 hepatoblastoma cells
assay.method.text: Growth inhibition, crystal violet staining, HepG2
Assay type: cell-based
run.parameters: 48 h incubation, mean ± SD, read-out: Anti-proliferative activity IC50, HepG2
measured.quantity: IC50 (µM)

| compound | qualifying.sign | readout.value |
| --- | --- | --- |
| COCCOc1cc(/C=C(\C#N)c2cccs2)ccc1OC [Compound 1g] | > | 20 |
| COCCOc1ccc(/C=C(\C#N)c2cccs2)cc1F [Compound 1k] | > | 20 |
| CNC(=O)c1cc(Oc2ccc(NC(=O)Nc3ccc(Cl)c(C(F)(F)F)c3)cc2)ccn1 [Sorafenib, sorafenib, reference compound] | = | 2.73 |
| COc1ccc(C=C(C#N)c2cccs2)cc1C [Compound 1e] | = | 1.3 |
| COc1ccc(/C=C(\C#N)c2cccs2)cc1Br [Compound 1l] | = | 13.9 |
| N#C/C(=C\c1cccc(O)c1)c1cccs1 [Compound 1m] | > | 20 |
| COc1ccc(C=C(C#N)c2cccnc2)cc1O [Compound 2, reference compound] | = | 6.26 |
| COCCOc1ccc(/C=C(\C#N)c2cccs2)cc1OCCOC [Compound 1h] | > | 20 |
| COc1ccc(C=C(C#N)c2cccs2)cc1 [Compound 1a] | = | 1.46 |
| COc1ccc(/C=C(\C#N)c2cccs2)cc1OCCCN1CCOCC1 [Compound 1n] | > | 20 |
| CN1CCN(c2ccc(/C=C(\C#N)c3cccs3)cc2)CC1 [Compound 1i] | = | 9.3 |
| COc1ccc(C=C(C#N)c2cccs2)cc1O [Compound 1c] | = | 0.55 |
| COc1cc(/C=C(\C#N)c2cccs2)ccc1O [Compound 1d] | > | 20 |
| Cn1ccc2cc(/C=C(\C#N)c3cccs3)ccc21 [Compound 1o] | > | 20 |
| CN(C)c1ccc(C=C(C#N)c2cccs2)cc1 [Compound 1b] | = | 0.72 |
| COc1cc(/C=C(\C#N)c2cccs2)ccc1-c1ccccc1Cl [Compound 1f] | > | 20 |
| COc1ccc(/C=C(\C#N)c2cccs2)cc1F [Compound 1j] | = | 4.9 |

* * *

test.target: UniProt:P35968
Sequence (P35968 20-1356): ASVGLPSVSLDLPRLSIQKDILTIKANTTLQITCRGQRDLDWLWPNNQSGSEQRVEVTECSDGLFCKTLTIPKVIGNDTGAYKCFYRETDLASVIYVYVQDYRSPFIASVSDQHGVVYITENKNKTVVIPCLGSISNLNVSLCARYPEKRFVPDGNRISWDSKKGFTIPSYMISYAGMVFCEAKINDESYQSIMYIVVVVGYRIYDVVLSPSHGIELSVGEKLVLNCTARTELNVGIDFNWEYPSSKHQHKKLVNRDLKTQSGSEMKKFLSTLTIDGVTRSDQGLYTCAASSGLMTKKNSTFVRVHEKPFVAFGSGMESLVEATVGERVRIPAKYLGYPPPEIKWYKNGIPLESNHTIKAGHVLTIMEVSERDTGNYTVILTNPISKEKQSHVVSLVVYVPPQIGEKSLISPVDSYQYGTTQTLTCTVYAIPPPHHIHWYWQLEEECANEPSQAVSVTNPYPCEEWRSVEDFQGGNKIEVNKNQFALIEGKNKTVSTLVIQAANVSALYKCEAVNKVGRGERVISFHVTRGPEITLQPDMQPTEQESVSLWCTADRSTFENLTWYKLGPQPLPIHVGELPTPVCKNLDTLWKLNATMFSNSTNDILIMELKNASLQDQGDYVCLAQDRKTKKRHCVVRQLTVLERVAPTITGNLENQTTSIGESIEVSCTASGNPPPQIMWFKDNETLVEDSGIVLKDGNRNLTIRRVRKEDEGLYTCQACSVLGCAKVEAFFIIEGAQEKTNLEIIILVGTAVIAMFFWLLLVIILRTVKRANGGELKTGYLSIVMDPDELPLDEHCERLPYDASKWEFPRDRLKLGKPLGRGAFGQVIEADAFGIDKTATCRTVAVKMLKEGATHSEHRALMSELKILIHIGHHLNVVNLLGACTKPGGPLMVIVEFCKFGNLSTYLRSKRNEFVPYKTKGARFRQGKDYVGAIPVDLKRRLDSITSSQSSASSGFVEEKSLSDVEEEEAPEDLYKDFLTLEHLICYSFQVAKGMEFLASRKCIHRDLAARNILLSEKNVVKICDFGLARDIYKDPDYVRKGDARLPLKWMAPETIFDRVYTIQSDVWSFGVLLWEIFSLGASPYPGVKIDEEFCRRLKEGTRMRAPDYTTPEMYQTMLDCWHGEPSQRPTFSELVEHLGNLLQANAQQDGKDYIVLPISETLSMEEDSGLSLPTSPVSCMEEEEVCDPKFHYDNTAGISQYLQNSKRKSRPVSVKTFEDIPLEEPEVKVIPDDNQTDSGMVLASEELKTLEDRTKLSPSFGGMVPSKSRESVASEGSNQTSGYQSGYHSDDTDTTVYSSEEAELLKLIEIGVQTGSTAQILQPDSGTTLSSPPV
pIC50: −log10 of the molar value.
measured.quantity: pIC50

| compound | test.target | readout.value |
| --- | --- | --- |
| COc1ccc(C=C(C#N)c2cccs2)cc1O [Compound 1c] | UniProt:P35968 | 5.48 |

* * *

Listing of recorded IC50 by entry.
System: human Huh-7 HCC cells
assay.method.text: Growth inhibition, crystal violet staining, Huh-7
Assay type: cell-based
run.parameters: 48 h incubation, mean ± SD, read-out: Anti-proliferative activity IC50, Huh-7
measured.quantity: IC50 (nM)

| compound | test.target | unit.annotation | qualifying.sign | readout.value |
| --- | --- | --- | --- | --- |
| COc1ccc(C=C(C#N)c2cccs2)cc1O [Compound 1c] | human Huh-7 HCC cells | nM | = | 320 |
| COc1cc(/C=C(\C#N)c2cccs2)ccc1-c1ccccc1Cl [Compound 1f] | human Huh-7 HCC cells | nM | > | 20000 |
| COc1ccc(C=C(C#N)c2cccs2)cc1C [Compound 1e] | human Huh-7 HCC cells | nM | = | 1850 |
| COc1ccc(/C=C(\C#N)c2cccs2)cc1OCCCN1CCOCC1 [Compound 1n] | human Huh-7 HCC cells | nM | > | 20000 |
| CNC(=O)c1cc(Oc2ccc(NC(=O)Nc3ccc(Cl)c(C(F)(F)F)c3)cc2)ccn1 [Sorafenib, sorafenib, reference compound] | human Huh-7 HCC cells | nM | = | 2500 |
